These measurements were taken from patent US20210139581A1.

// Fold affinity improvement over parental Ab (AB-H64) lookup, one value per entry
- SYSTEM_NAME: T1, human CD33 (human, UniProt P20138 18-259, limits assumed)
- T1 construct: Human CD33 immobilized on the BLI sensor tip or the BIAcore C1 chip; also called Siglec-3
- ASSAY_SUMMARY: BLI (ForteBio), Fab 100 nM on immobilized CD33
Kindly answer with a numeric value in fold, unit omitted.

Check out these entries, answers already filled in.
BINDER	RECORDED_RESULT
AB-64.6 (antibody, V domains shown) VH: QVQLVQSGAEVKKPGASVKISCKASGYTFTDYNYHWVRQAPGQGLEWIGFIYPSNGITGYAQKFQGRATLTVDNSTSTAYMELSSLRSEDTAVYYCARSDVDYFDYWGQGTLLTVSS VL: DIVLTQSPDSLAVSLGERATINCRASQDVSTSTYSYMHWYQQKPGQPPKLLIKYASFLESGVPDRFSGSGSGTDFTLTISSLQAEDVAVYYCQHSWEIPLTFGQGTKLEIK	8.52
AB-64.1 (antibody, V domains shown) VH: QVQLVQSGAEVKKPGASVKISCKASGYTFTDYNLHWVRQAPGQGLEWIGFIYPSNGITGYAQKFQGRATLTVDNSTSTAYMELSSLRSEDTAVYYCARSDVDYFDYWGQGTLLTVSS VL: DIVLTQSPDSLAVSLGERATINCRASQSVSTSTYSYMHWYQQKPGQPPKLLIKYASNLESGVPDRFSGSGSGTDFTLTISSLQAEDVAVYYCQHSWEIPLTFGQGTKLEIK	3.23

# context switch: different binder, same Fold affinity improvement over parental Ab (AB-H64)
Would you mind telling me what Fold affinity improvement over parental Ab (AB-H64) value was observed for AB-64.2 (antibody, V domains shown) VH: QVQLVQSGAEVKKPGASVKISCKASGYTFTDYNLHWVRQAPGQGLEWIGFIYPSNGITGYAQKFQGRATLTVDNSTSTAYMELSSLRSEDTAVYYCARSTVDYFDYWGQGTLLTVSS VL: DIVLTQSPDSLAVSLGERATINCRVSQDVSTSTYSYMHWYQQKPGQPPKLLIKYASNLESGVPDRFSGSGSGTDFTLTISSLQAEDVAVYYCQHSWEIPLTFGQGTKLEIK ?
3.64
